# Read-out: Interferon-gamma inducible Protein 10 (IP10), CXCL10 (gene 3627)
# procedure-text: BSK_hDFCGF_IP10: BioMAP Diversity Plus: hDFCGF Assay for Interferon-gamma inducible Protein 10 (IP10) Biomarker Activity (AID 2283053)
# study-conditions: primary human foreskin fibroblasts; actives raise or lower the signal
The source made the active and inactive calls. The calls were made as follows: active = hit-call score of the fitted dose curve at least 0.9, where 1 is the maximum; inactive = score below 0.9.
Classes used: 1 for active, -1 for inactive

1. CCOC(=O)C(O)(c1ccc(Cl)cc1)c1ccc(Cl)cc1 :: 1
2. CC(C)C(=O)OCC(C)(C)C(OC(=O)C(C)C)C(C)C (stereo not drawn) :: -1
3. CCCCCCOC(=O)c1ccccc1C(=O)OCCCCCC :: -1
4. C[C@]12CCC(=O)C=C1CC[C@@H]1[C@@H]2CC[C@]2(C)C(=O)CC[C@@H]12 :: -1
5. Cc1ccccc1O :: -1
6. COS(=O)(=O)OC :: -1
7. Cc1cc2c3c(c1)C(c1ccccc1)=N[C@@H](NC(=O)c1ccncc1)C(=O)N3CC2 :: -1
8. O=C(NC(=O)c1cc(F)c(F)cc1Cl)Nc1cc(F)ccc1N1CCC(C(=O)O)CC1 :: -1
9. c1cc2ccc3cccc4ccc(c1)c2c34 :: -1
10. Clc1ccc(C(c2ccccc2Cl)C(Cl)(Cl)Cl)cc1 (stereo not drawn) :: 1
11. CN(C)CCO :: -1
12. Cc1cc(-c2ccc(N)c(C)c2)ccc1N :: -1
13. CN(C)c1nc(=O)n(C2CCCCC2)c(=O)n1C :: -1

* * *

# procedure-text: ATG_Sox_CIS: Attagene CIS-FACTORIAL HepG2 Assay for human SRY-box transcription factor (SOX) (AID 2282960)
# study-conditions: HepG2 Attagene cis-factorial SOX reporter, mRNA; actives raise or lower the signal
Activity calls are given as the source filed them. Rule for the calls: active = hit-call score of the fitted dose curve at least 0.9, where 1 is the maximum; inactive = score below 0.9.
Classes used: active, inactive

1) Cc1cccc(C)c1N :: inactive
2) O=C(N[C@H]1CN2CCC1CC2)c1cc2ccoc2cn1 :: inactive
3) CCC(C)c1cc([N+](=O)[O-])cc([N+](=O)[O-])c1O (configuration not stated) :: active
4) ClC1=C(Cl)[C@]2(Cl)[C@@H]3[C@H]4C[C@H]([C@@H]5O[C@H]45)[C@@H]3[C@@]1(Cl)C2(Cl)Cl :: inactive
5) Oc1ccc(C(c2ccc(O)cc2)(C(F)(F)F)C(F)(F)F)cc1 :: inactive
6) Nc1ccc(-c2ccc(N)cc2)cc1 :: inactive
7) Cc1ccccc1O :: inactive
8) ClC1=C(Cl)[C@]2(Cl)[C@@H]3[C@@H](Cl)[C@H]4O[C@H]4[C@@H]3C1(Cl)C2(Cl)Cl :: inactive
9) Cc1ccc(O)c(C)c1 :: inactive
10) CC(C)C(=O)OCC(C)(C)C(OC(=O)C(C)C)C(C)C (configuration not stated) :: inactive
11) CCOCCOC(C)=O :: inactive
12) Cc1cccc([N+](=O)[O-])c1 :: inactive

* * *

# Read-out: Tumor necrosis factor (Homo sapiens)
# procedure-text: BSK_LPS_TNFa: BioMAP Diversity Plus: LPS Assay for Tumour Necrosis Factor alpha (TNFa) Biomarker Activity (AID 2283085);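 as to AC50: TNFa protein level quantified by ELISA in the co-culture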
# study-conditions: primary human HUVEC with PBMC; actives raise or lower the signal
Activity calls are given as the source filed them. Rule for the calls: active = hit-call score of the fitted dose curve at least 0.9, where 1 is the maximum; inactive = score below 0.9.
reported-metric: AC50

1) CCSC(=O)N(CC)C1CCCCC1 :: inactive
2) CCCN(CCC)N=O :: inactive
3) O=S(=O)(O)C(F)(F)C(F)(F)C(F)(F)C(F)(F)C(F)(F)C(F)(F)F :: inactive
4) O=C(O)C(F)(F)C(F)(F)C(F)(F)C(F)(F)C(F)(F)F :: inactive
5) O=NN(c1ccccc1)c1ccccc1 :: 3.97 µM (active)
6) CN(C)c1nc(=O)n(C2CCCCC2)c(=O)n1C :: inactive
7) Cc1cccc([N+](=O)[O-])c1 :: inactive
8) ClC1=C(Cl)[C@]2(Cl)[C@@H]3[C@H]4C[C@H]([C@@H]5O[C@H]45)[C@@H]3[C@@]1(Cl)C2(Cl)Cl :: 4.16 µM (active)
9) CC(C)C(=O)OCC(C)(C)C(OC(=O)C(C)C)C(C)C (configuration not stated) :: inactive
10) C[C@]12CCC(=O)C=C1CC[C@@H]1[C@@H]2CC[C@]2(C)C(=O)CC[C@@H]12 :: inactive
11) Oc1ccc(C(c2ccc(O)cc2)(C(F)(F)F)C(F)(F)F)cc1 :: 21.5 µM (active)
12) ClC(Cl)=C(c1ccc(Cl)cc1)c1ccc(Cl)cc1 :: 31.8 µM (active)
13) COS(=O)(=O)OC :: 0.318 µM (active)
14) CCCCCCCCCC[N+](C)(C)CCCCCCCCCC :: 3.79 µM (active)
15) CCOC(=O)C(O)(c1ccc(Cl)cc1)c1ccc(Cl)cc1 :: 39.3 µM (active)
16) O=C(N[C@H]1CN2CCC1CC2)c1cc2ccoc2cn1 :: inactive
17) Nn1cnnc1 :: inactive
18) C=CC(=O)NCNC(=O)C=C :: inactive
19) CC(C)(c1ccccc1)c1ccc(O)cc1 :: 31.5 µM (active)
20) COc1ccc(O)c(C(C)(C)C)c1 :: inactive
21) CC#Cc1cc(C)nc(Nc2ccccc2)n1 :: inactive
22) CCNc1nc(NC(C)C)nc(SC)n1 :: 5.99 µM (active)
23) ClC1=C(Cl)[C@]2(Cl)[C@@H]3[C@@H]4C[C@@H]([C@H]5O[C@@H]45)[C@@H]3[C@@]1(Cl)C2(Cl)Cl :: 3.05 µM (active)
24) CCC(C)(c1ccc(O)cc1)c1ccc(O)cc1 :: inactive
25) Clc1ccc(C(Cl)(Cl)Cl)cc1 :: inactive
26) CCCCCCCCCc1ccc(O)cc1 :: 36.5 µM (active)
27) Cc1cc(O)ccc1Cl :: inactive

* * *

# Read-out: ABC Transporter (ABCB1), ABCB1 (gene 5243)
# procedure-text: LTEA_HepaRG_ABCB1: Life Technologies and Expression Analysis (LTEA) Assay for ABC Transporter (ABCB1) using HepaRG (AID 2283460)
# study-conditions: mRNA level, 48 h; actives raise or lower the signal
Active and inactive are the calls of the source. Rule for the calls: active = hit-call score of the fitted dose curve at least 0.9, where 1 is the maximum; inactive = score below 0.9.
reported-metric: AC50

1. COS(=O)(=O)OC :: inactive
2. Oc1ccc(Cl)cc1Cl :: inactive
3. CN(C)c1nc(=O)n(C2CCCCC2)c(=O)n1C :: inactive
4. Clc1ccc(C(c2ccccc2Cl)C(Cl)(Cl)Cl)cc1 (stereo not given) :: 16.9 µM (active)
5. CN(C)CCO :: inactive
6. N#Cc1ccc(N(CC(N)=O)CC(F)(F)F)cc1C(F)(F)F :: 9.92 µM (active)
7. O=S(=O)(O)C(F)(F)C(F)(F)C(F)(F)C(F)(F)C(F)(F)C(F)(F)F :: inactive
8. Cc1ccccc1CO[C@@H]1C[C@@]2(C(C)C)CC[C@]1(C)O2 :: 50 µM (active)
9. CC(C)(c1ccccc1)c1ccc(O)cc1 :: inactive
10. Oc1ccc(C(c2ccc(O)cc2)(C(F)(F)F)C(F)(F)F)cc1 :: inactive
11. CCCCCCCCCC[N+](C)(C)CCCCCCCCCC :: inactive
12. CCCCCCOC(=O)c1ccccc1C(=O)OCCCCCC :: inactive
13. Cc1cc(O)ccc1Cl :: inactive
14. CCC(C)(c1ccc(O)cc1)c1ccc(O)cc1 :: inactive
15. O=C(O)C(F)(F)C(F)(F)C(F)(F)C(F)(F)C(F)(F)F :: inactive
16. Cc1cccc(C)c1N :: inactive
17. CC1=C2C[C@H]3[C@@H](CC=C4C[C@@H](O)CC[C@@]43C)[C@@H]2CC[C@]12O[C@@H]1C[C@H](C)CN[C@H]1[C@H]2C :: inactive
18. ClC1=C(Cl)[C@]2(Cl)[C@@H]3[C@@H](Cl)[C@H]4O[C@H]4[C@@H]3C1(Cl)C2(Cl)Cl :: 6.62 µM (active)
19. Clc1ccc(Cl)cc1 :: inactive
20. CCNc1nc(NC(C)C)nc(SC)n1 :: inactive
21. c1cc2ccc3cccc4ccc(c1)c2c34 :: inactive
22. NS(=O)(=O)C(F)(F)C(F)(F)C(F)(F)C(F)(F)C(F)(F)C(F)(F)C(F)(F)C(F)(F)F :: 9.25 µM (active)
23. O=C(O)C(F)(F)C(F)(F)C(F)(F)C(F)(F)C(F)(F)C(F)(F)C(F)(F)C(F)(F)C(F)(F)F :: 85.1 µM (active)
24. CCOC(=O)C(O)(c1ccc(Cl)cc1)c1ccc(Cl)cc1 :: 73 µM (active)
25. C[C@]12CCC(=O)C=C1CC[C@@H]1[C@@H]2CC[C@@]2(C)[C@H]1CC[C@]2(C)O :: 5.73 µM (active)

* * *

# procedure-text: BSK_3C_SRB: Viability Assessment in the BioMAP Diversity Plus: 3C Assay (AID 2283023);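 also: cells read 24 h after compound dosing; fitted both ways against DMSO so a hit may be signal rise or drop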
# study-conditions: primary human endothelial cells (HUVEC)
Active and inactive are the calls of the source. How the source made its calls: active means hit-call score of the fitted dose curve at least 0.9, where 1 is the maximum; inactive means score below 0.9.
Classes used: TRUE = active, FALSE = inactive

1. O=S(=O)(O)C(F)(F)C(F)(F)C(F)(F)C(F)(F)F :: FALSE
2. CC(C)(O)C(=O)Nc1ccc([N+](=O)[O-])c(C(F)(F)F)c1 :: FALSE
3. CCCCCCCCCC[N+](C)(C)CCCCCCCCCC :: TRUE
4. O=C(O)C(F)(F)C(F)(F)C(F)(F)C(F)(F)C(F)(F)F :: FALSE
5. CC1=C2C[C@H]3[C@@H](CC=C4C[C@@H](O)CC[C@@]43C)[C@@H]2CC[C@]12O[C@@H]1C[C@H](C)CN[C@H]1[C@H]2C :: FALSE
6. Oc1ccc(Cl)cc1Cl :: FALSE
7. C[C@]12CCC(=O)C=C1CC[C@@H]1[C@@H]2CC[C@@]2(C)[C@H]1CC[C@]2(C)O :: TRUE
8. CC(C)(c1ccccc1)c1ccc(O)cc1 :: TRUE
9. O=S(=O)(O)C(F)(F)C(F)(F)C(F)(F)C(F)(F)C(F)(F)C(F)(F)F :: FALSE
10. Clc1ccc(C(c2ccccc2Cl)C(Cl)(Cl)Cl)cc1 (stereo not drawn) :: TRUE
11. N#Cc1ccc(N(CC(N)=O)CC(F)(F)F)cc1C(F)(F)F :: FALSE
12. CCCCCCCCCc1ccc(O)cc1 :: TRUE
13. Sc1ccccc1 :: FALSE
14. CCCN(CCC)N=O :: FALSE
15. CC#Cc1cc(C)nc(Nc2ccccc2)n1 :: FALSE
16. Cc1cccc([N+](=O)[O-])c1 :: FALSE
17. Clc1ccc(C(Cl)(Cl)Cl)cc1 :: FALSE
18. CN(C)CCO :: FALSE
19. CCC(=O)O[C@H]1CC[C@H]2[C@@H]3CCC4=CC(=O)CC[C@]4(C)[C@H]3CC[C@]12C :: TRUE
20. Cc1cc(O)ccc1Cl :: FALSE
21. ClC(Cl)=C(c1ccc(Cl)cc1)c1ccc(Cl)cc1 :: TRUE
22. Cc1ccccc1O :: FALSE
23. Oc1ccc(C(c2ccc(O)cc2)(C(F)(F)F)C(F)(F)F)cc1 :: TRUE

Measured values drawn from PubChem BioAssay (EPA / NIEHS) for this set.
